# Procedure Summary: small-molecule microarray binders of probe aEGFR, primary screen, biochemical, biotinylated probe, 635/667 nm fluorescence (AID 1097);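 note: probe is a biotinylated anti-EGFR antibody binding compounds printed on slides; score combines fluorescence near 667 nm and signal to noise of each spot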
# Assay Conditions: higher = more signal
Endpoint Name: composite z-score

- COCCOC(=O)N1C(=O)[C@@]2(c3cc(C#CC4(O)CCCCCC4)ccc31)[C@H](C(=O)NC[C@H](O)c1ccccc1)[C@H]1C(=O)O[C@H](c3ccccc3)[C@H](c3ccccc3)N1[C@@H]2c1ccccc1OCCO: 0.0343
- CC(C)C(CO)N1C(=O)[C@@H]2C3C(=O)OCCC/C=C\[C@H]3OC23C=CCN(C(C)C)C(=O)[C@@H]13 (some centres undefined): -0.188
- CC(=O)NCCCC[C@@H]1NC(=O)[C@@H]2C[C@H](C(=O)O)[C@H](c3cccc(OCCO)c3)N2C1=O: 0.0437
- C=C[C@H](OC)[C@@H](OC(=O)Nc1ccc(OC)cc1)c1ccc(OC)c(O)c1: -0.373

Every entry's value here was drawn from PubChem BioAssay.
